Molecular target: DNA repair and recombination protein RAD54-like (Homo sapiens, UniProt Q92698)
Sequence (Q92698 whole entry): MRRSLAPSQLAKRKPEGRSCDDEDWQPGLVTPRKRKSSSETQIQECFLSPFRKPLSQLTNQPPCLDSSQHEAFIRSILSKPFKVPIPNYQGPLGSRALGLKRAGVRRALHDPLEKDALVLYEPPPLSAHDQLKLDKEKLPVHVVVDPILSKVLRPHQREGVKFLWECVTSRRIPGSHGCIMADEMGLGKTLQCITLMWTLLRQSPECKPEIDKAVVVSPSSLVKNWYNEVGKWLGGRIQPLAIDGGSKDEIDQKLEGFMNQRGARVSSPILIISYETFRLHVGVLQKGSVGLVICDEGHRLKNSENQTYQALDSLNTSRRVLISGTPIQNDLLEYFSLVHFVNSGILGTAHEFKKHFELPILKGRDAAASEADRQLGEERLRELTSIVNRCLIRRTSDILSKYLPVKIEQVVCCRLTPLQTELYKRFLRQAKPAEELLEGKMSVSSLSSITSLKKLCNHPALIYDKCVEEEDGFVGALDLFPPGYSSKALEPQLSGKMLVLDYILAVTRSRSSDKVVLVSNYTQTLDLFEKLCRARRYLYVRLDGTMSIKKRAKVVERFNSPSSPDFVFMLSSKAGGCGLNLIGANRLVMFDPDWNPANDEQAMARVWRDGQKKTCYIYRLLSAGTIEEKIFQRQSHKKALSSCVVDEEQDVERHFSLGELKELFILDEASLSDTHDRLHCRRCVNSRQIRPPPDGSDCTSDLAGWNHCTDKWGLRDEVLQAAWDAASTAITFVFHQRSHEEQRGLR
Experiment: RAD54 Holliday junction migration blockers – biochemical, fluorescence, cherry-picked samples, dose series, confirmation (AID 651657)
Type: functional
The source made the active and inactive calls.

>  <SMILES_RECORD>
CCCCN(C)CCNC(=O)c1cc2cc3ccc(OC)cc3nc2o1

>  <SUBJECT_OF_TEST>
DNA repair and recombination protein RAD54-like (Homo sapiens, UniProt Q92698)

>  <AC50>
50.9 µM (active)

$$$$
>  <SMILES_RECORD>
CN(C)CCNc1ncnc2c1sc1nc(N3CCCC3)c3c(c12)CC(C)(C)OC3

>  <SUBJECT_OF_TEST>
DNA repair and recombination protein RAD54-like (Homo sapiens, UniProt Q92698)

>  <AC50>
9.5 µM (active)

$$$$
>  <SMILES_RECORD>
CN(C)CCCNc1nc2cc(-c3ccc4c(ccn4C)c3)sc2c(=O)n1C

>  <SUBJECT_OF_TEST>
DNA repair and recombination protein RAD54-like (Homo sapiens, UniProt Q92698)

>  <AC50>
28.7 µM (active)

$$$$
>  <SMILES_RECORD>
O=C(CN1CCCC1)Nc1ccc(-c2nc3cc(NC(=O)CN4CCCC4)ccc3o2)cc1

>  <SUBJECT_OF_TEST>
DNA repair and recombination protein RAD54-like (Homo sapiens, UniProt Q92698)

>  <AC50>
12.5 µM (active)

$$$$
>  <SMILES_RECORD>
Cc1c(O)c(CN(C)C)cc2c1oc(=O)c1ccccc12

>  <SUBJECT_OF_TEST>
DNA repair and recombination protein RAD54-like (Homo sapiens, UniProt Q92698)

>  <AC50>
35.5 µM (active)

$$$$
>  <SMILES_RECORD>
CCN(CC)CCNc1nc2cc(OC)c(OC)cc2c2nc(-c3ccccc3)nn12

>  <SUBJECT_OF_TEST>
DNA repair and recombination protein RAD54-like (Homo sapiens, UniProt Q92698)

>  <AC50>
1.92 µM (active)

$$$$
>  <SMILES_RECORD>
CCOC(=O)c1cnc2ccc(OC)cc2c1Nc1ccc(N2CCN(C)CC2)cc1

>  <SUBJECT_OF_TEST>
DNA repair and recombination protein RAD54-like (Homo sapiens, UniProt Q92698)

>  <AC50>
34 µM (active)

$$$$

---

The following compounds are shown together with reported IC50 values.
Target: DNA dC->dU-editing enzyme APOBEC-3G (Homo sapiens);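 also: Dose-response counterscreen measuring inhibition of APOBEC3G DNA deaminase activity, run while confirming APOBEC3A inhibitors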
Sequence (Q9HC16 whole entry): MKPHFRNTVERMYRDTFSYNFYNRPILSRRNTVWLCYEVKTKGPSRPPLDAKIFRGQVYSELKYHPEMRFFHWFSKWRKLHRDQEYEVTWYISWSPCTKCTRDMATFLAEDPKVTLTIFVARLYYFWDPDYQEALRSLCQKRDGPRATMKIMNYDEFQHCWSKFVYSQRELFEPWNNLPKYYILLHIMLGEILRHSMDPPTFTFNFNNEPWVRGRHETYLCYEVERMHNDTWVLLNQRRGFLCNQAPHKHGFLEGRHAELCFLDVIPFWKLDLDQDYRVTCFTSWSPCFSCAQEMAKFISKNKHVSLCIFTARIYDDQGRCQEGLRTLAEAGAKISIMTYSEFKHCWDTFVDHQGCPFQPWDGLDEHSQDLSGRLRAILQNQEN
Type: functional
Activity calls are given as the source filed them.

>  <COMPOUND>
COCCN1C(NCCCOC(C)C)=N[C@@H](c2ccccc2)C(C(=O)OC)=C1C

>  <IC50>
4.32 µM (active)

$$$$
>  <COMPOUND>
COc1ccc(/C=N/NC(=O)C(C)Sc2ccccn2)cc1[N+](=O)[O-] (centres undefined)

>  <IC50>
7.71 µM (active)

$$$$
>  <COMPOUND>
CCN1CCN(S(=O)(=O)c2ccc(Cl)c(C(=O)Nc3cc(Cl)ccc3N3CCOCC3)c2)CC1

>  <IC50>
5.78 µM (active)

$$$$
>  <COMPOUND>
COCCN(C(=O)COC(=O)CNC(=O)c1cccs1)c1c(N)n(Cc2ccccc2)c(=O)[nH]c1=O

>  <IC50>
10.8 µM (active)

$$$$

---

Target: Cytochrome P450 2C9 (Homo sapiens)
Sequence (P11712 whole entry): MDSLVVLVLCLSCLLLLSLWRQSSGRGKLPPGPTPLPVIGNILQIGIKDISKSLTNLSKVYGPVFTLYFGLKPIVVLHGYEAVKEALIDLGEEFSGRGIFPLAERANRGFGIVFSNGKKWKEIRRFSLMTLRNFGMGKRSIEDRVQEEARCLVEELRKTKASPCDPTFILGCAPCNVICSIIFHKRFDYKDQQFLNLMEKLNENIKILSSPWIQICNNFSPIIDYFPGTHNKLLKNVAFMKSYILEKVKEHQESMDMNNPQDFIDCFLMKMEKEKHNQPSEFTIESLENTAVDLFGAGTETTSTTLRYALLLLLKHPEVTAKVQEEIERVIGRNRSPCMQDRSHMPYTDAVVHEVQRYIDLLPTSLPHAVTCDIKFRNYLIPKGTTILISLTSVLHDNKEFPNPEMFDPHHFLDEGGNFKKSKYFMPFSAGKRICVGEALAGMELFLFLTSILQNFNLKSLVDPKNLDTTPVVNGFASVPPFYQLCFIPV
REPORTED_ENDPOINT: AC50

>  <COMPOUND>
CCOc1ccccc1/C=C(\C#N)C(N)=O

>  <REPORTED_ENDPOINT>
AC50

>  <ASSAY_RESULT>
inconclusive

$$$$
>  <COMPOUND>
CC(=O)Nc1cc(S(=O)(=O)Nc2ccccc2)c(C)cc1C

>  <REPORTED_ENDPOINT>
AC50

>  <ASSAY_RESULT>
inconclusive

$$$$
>  <COMPOUND>
N#Cc1cccc(NC(=O)N2CC[C@@]3(CCCN(C(=O)Oc4ccccc4)C3)C2)c1

>  <REPORTED_ENDPOINT>
AC50

>  <ASSAY_RESULT>
inconclusive

$$$$
>  <COMPOUND>
CCN1CCCC1CNC(=O)C(=O)Nc1ccccc1OC (stereo unspecified)

>  <REPORTED_ENDPOINT>
AC50

>  <ASSAY_RESULT>
inconclusive

$$$$
>  <COMPOUND>
CC(C)C(=O)c1c(C(C)C)nn2ccccc12 [IBUDILAST]

>  <REPORTED_ENDPOINT>
AC50

>  <ASSAY_RESULT>
inconclusive

$$$$
>  <COMPOUND>
O=C(CNC(=O)c1ccc([N+](=O)[O-])cc1)c1ccccc1

>  <REPORTED_ENDPOINT>
AC50

>  <ASSAY_RESULT>
inconclusive

$$$$
>  <COMPOUND>
Cc1ccc(C(=O)N/N=C/c2cc(C)n(-c3ccc(Br)cc3)c2C)cc1[N+](=O)[O-]

>  <REPORTED_ENDPOINT>
AC50

>  <ASSAY_RESULT>
inconclusive

$$$$
>  <COMPOUND>
COc1ccc(S(=O)(=O)NCCC(=O)NCc2ccc(F)cc2)cc1

>  <REPORTED_ENDPOINT>
AC50

>  <ASSAY_RESULT>
inconclusive

$$$$
>  <COMPOUND>
Clc1ccc(-n2nnnc2CN2CCOCC2)cc1

>  <REPORTED_ENDPOINT>
AC50

>  <ASSAY_RESULT>
inconclusive

$$$$
>  <COMPOUND>
COc1ccccc1-c1nnc(NC(C)=O)s1

>  <REPORTED_ENDPOINT>
AC50

>  <ASSAY_RESULT>
inconclusive

$$$$
>  <COMPOUND>
COc1ccc(S(=O)(=O)N2CCN(CC(=O)Nc3cccc(F)c3)CC2)cc1

>  <REPORTED_ENDPOINT>
AC50

>  <ASSAY_RESULT>
inconclusive

$$$$

---

Target: Heat shock protein HSP 90-alpha (Homo sapiens, UniProt P07900)
Type: functional, organism-based
Active and inactive are the calls of the source.

>  <COMPOUND>
COc1ccc2c3c(ccc2c1)C(O)=C(C=O)CC3

>  <AC50>
2.94 µM (active)

$$$$
>  <COMPOUND>
Oc1ccccc1C1=NN(c2ccccc2)C(c2ccccc2)C1 (stereo not drawn)

>  <AC50>
4.3 µM (active)

$$$$
>  <COMPOUND>
Cc1ccc(NC(=O)c2nc(S(=O)(=O)Cc3ccccc3)ncc2Cl)cc1

>  <AC50>
3.21 µM (active)

$$$$
>  <COMPOUND>
COc1ccc(OC)c(N2C(=O)NC(=O)/C(=C\c3ccc([N+](=O)[O-])s3)C2=O)c1

>  <AC50>
4.17 µM (active)

$$$$
>  <COMPOUND>
Oc1c(CN2CCc3ccccc3C2)cc(Cl)c2cccnc12

>  <AC50>
7.67 µM (active)

$$$$
>  <COMPOUND>
O=[N+]([O-])c1cc(-n2cnnn2)ccc1N1CCC(Cc2ccccc2)CC1

>  <AC50>
4.38 µM (active)

$$$$
>  <COMPOUND>
Oc1c(Cl)cccc1Cc1cc(Cl)cc(Cl)c1O

>  <AC50>
3.05 µM (active)

$$$$
>  <COMPOUND>
CC(C)(C)c1nnc(N/N=C/c2cc(Br)ccc2O)n(N)c1=O

>  <AC50>
5.57 µM (active)

$$$$
>  <COMPOUND>
COc1ccc(/N=C/c2cc(Cc3ccccc3Cl)cc([N+](=O)[O-])c2O)cc1OC

>  <AC50>
1.6 µM (active)

$$$$
>  <COMPOUND>
COc1ccc(C2=CC3=C(Br)C(=O)C(C)(OC(=O)c4cccs4)C(=O)C3=CO2)cc1 (stereo not drawn)

>  <AC50>
2.35 µM (active)

$$$$
>  <COMPOUND>
O=C(CC(O)(C(F)(F)F)C(F)(F)F)Nc1ccc(Cl)c(Cl)c1

>  <AC50>
16.8 µM (active)

$$$$
>  <COMPOUND>
c1ccc(-c2ccc(C(c3ccccc3)n3ccnc3)cc2)cc1 (stereo not drawn)

>  <AC50>
1.06 µM (active)

$$$$
>  <COMPOUND>
O=C(NCC1CCCO1)c1cc([N+](=O)[O-])ccc1N1CCC(Cc2ccccc2)CC1 (stereo not drawn)

>  <AC50>
4.28 µM (active)

$$$$

---

Biological target: Corticotropin-releasing factor receptor 2/Corticotropin-releasing factor-binding protein (Homo sapiens, UniProt P24387+Q13324)
Sequence (Q13324 whole entry): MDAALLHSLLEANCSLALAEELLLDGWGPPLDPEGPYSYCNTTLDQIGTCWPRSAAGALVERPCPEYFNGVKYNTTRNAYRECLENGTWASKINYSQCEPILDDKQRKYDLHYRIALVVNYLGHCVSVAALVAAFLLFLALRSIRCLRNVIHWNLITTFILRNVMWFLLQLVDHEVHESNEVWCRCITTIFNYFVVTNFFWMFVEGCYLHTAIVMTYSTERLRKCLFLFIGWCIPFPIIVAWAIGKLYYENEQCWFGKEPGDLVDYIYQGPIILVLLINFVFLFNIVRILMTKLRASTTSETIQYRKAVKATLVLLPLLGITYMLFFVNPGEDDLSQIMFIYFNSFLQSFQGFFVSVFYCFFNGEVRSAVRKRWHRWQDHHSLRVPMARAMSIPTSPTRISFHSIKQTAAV
Sequence (P24387 whole entry): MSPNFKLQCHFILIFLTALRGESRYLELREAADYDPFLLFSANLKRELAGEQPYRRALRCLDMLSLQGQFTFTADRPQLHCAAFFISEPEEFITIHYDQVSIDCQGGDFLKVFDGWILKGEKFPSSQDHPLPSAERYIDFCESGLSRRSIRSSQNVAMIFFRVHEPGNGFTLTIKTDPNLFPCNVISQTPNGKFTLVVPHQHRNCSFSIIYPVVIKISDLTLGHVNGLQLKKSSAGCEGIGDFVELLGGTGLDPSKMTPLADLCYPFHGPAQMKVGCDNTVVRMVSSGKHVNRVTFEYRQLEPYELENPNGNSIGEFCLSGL
Assay: Dose Response confirmation of uHTS hits for small molecule antagonists of the CRF-binding protein and CRF-R2 receptor complex.
Assay type: functional
Conditions: read-out: IC50_Mean
Active and inactive are the calls of the source.
Labels: Yes for active, No for inactive

>  <SMILES_RECORD>
O=C(NNC(=O)c1oc2ccccc2c1-n1cccc1)c1ccco1

>  <LABEL>
No

$$$$
>  <SMILES_RECORD>
CCCCCN(C(=O)CCC(=O)OCC(=O)c1c(C)cc(C)cc1C)c1c(N)n(CCCC)c(=O)[nH]c1=O

>  <LABEL>
No

$$$$
>  <SMILES_RECORD>
COc1ccc(N(CC(=O)NCCc2ccc(OC)c(OC)c2)S(=O)(=O)c2c(C)noc2C)cc1

>  <LABEL>
No

$$$$
>  <SMILES_RECORD>
O=C(c1ccco1)N(Cc1cccc([N+](=O)[O-])c1)c1ccc(Br)cc1

>  <LABEL>
Yes

$$$$
>  <SMILES_RECORD>
COc1ccc(NS(=O)(=O)c2c(C)n(C)c(=O)n(C)c2=O)cc1OC

>  <LABEL>
No

$$$$
>  <SMILES_RECORD>
CC(C)(C)OC(=O)N1CCN(c2ccc(CNC(=O)c3ccc(Cl)cc3)cc2)CC1

>  <LABEL>
No

$$$$
>  <SMILES_RECORD>
COc1cc(/C=C2\C(=N)N3N=C(S(C)(=O)=O)SC3=NC2=O)ccc1OCCOc1ccc(C)cc1

>  <LABEL>
Yes

$$$$
